assay: Percutaneous administration to anesthetized rats (glass cell on abdominal skin), plasma concentration by HPLC and residual drug recovery; type: in vivo, rat (Jcl SD strain); settings: Jcl SD, rat, plasma, topical or ocular, 16 mg/kg, 16 mg/kg percutaneous; phosphate salt 11.2 mg/mL in 2.5% 1-menthol/20% ethanol/77.5% distilled water; blood to 8 hr; N=3
readout type: AUC (ng·h/mL)
Answers are plain numbers, in ng·h/mL.

Problem: What value of AUC has been reported for the following compound? `c1cc(-c2nc3c4c(ncc3[nH]2)CCOC4)no1`
Result: 460

---

assay: Percutaneous administration to anesthetized rats (glass cell on abdominal skin), plasma concentration by HPLC and residual drug recovery; type: in vivo, rat (Jcl SD strain); conditions: Jcl SD, rat, plasma, topical or ocular, 8 mg/kg, pH 7, base pH 7: 3% 1-menthol/30% ethanol/67% phosphate buffer; phosphate salt 5.6 mg/mL; N=3
readout type: AUC (ng·h/mL)
Numbers only, in ng·h/mL.

Problem: What value of AUC has been reported for the following compound? `c1cc(-c2nc3c4c(ncc3[nH]2)CCOC4)no1`
Result: 380

Values from patent US6723732B1
